target: T1, hRAGE-Fc (human, UniProt Q15109 23-342, biotin label in the selections and HTRF assays); test: IC50 of parental M4 scFv-Fc over IC50 of clone, HTRF competition
T1 construct: extracellular domain; also called biotin labeled hRAGE-Fc; Biotin-labeled RAGE-Fc; not shown: Fc part
T1 sequence (Q15109 23-342): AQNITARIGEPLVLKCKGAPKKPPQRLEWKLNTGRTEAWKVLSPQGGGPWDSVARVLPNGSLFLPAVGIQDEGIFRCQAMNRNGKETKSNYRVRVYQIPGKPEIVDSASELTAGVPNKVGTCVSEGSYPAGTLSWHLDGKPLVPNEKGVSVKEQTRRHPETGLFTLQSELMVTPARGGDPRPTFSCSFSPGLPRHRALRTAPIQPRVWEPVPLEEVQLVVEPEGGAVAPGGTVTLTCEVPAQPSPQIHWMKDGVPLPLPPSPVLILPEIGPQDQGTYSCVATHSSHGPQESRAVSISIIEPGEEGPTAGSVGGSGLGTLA
ASSAY_ENDPOINT: Fold gain scFv-Fc (hRAGE) (fold)
Express it in fold; write the number only.

The recorded Fold gain scFv-Fc (hRAGE) for entry 3B3 scFv-Fc fusion (Fc fusion, not shown: wild-type human IgG Fc (hinge and constant domains)) DIQMTQSPSSLSASVGDRVTITCRASQDVGFYVNWFQQKPGKAPRRLIYRATNLADGVPSRFSGSRSGTDFTLTISSLQPEDFATYYCLEFDEHPLTFGGGTKVEIKDGGGSGGGGSGGGGSSEVQLVESGGGLVQPGGSLRLSCAASGFTFNNYWMTWVRQAPGKGLEWVASIDNSGDNTYYPDSVKDRFTISRDNAKNSLYLQMNSLRAEDTAVYYCARGGDITTGLDYWGQGTLVTVSS equals 8.8

Record summary for 6C2 scFv-Fc fusion (Fc fusion, not shown: wild-type human IgG Fc (hinge and constant domains)) DIQMTQSPSSLSASVGDRVTITCRASQDVGIYVNWFQQKPGKAPRRLIYRATNLADGVPSRFSGSRSGTDFTLTISSLQPEDFATYYCLEFDEHPLTFGGGTKVEIKDGGGSGGGGSGGGGSSEVQLVESGGGLVQPGGSLRLSCAASGFTFNNYWMTWVRQAPGKGLEWVASIDNSGDNTYYPDSVKDRFTISRDNAKNSLYLQMNSLRAEDTAVYYCARGGDIKVSLDRWGQGTLVTVSS : reported Fold gain scFv-Fc (hRAGE) = 9.4

For 10G10 scFv-Fc fusion (Fc fusion, not shown: wild-type human IgG Fc (hinge and constant domains)) DIQMTQSPSSLSASVGDRVTITCRASQDVGIYVNWFQQKPGKAPRRLIYRATNLADGVPSRFSGSRSGTDFTLTISSLQPEDFATYYCLEFDEHPLTFGGGTRVEIKDGGGSGGGGSGGGGSSEVQLVESGGGLVQPGGSLRLSCAASGFTFNNYWMSWVRQAPGKGLEWVASIDNSGENTYYPDSVKDRFTISRDNAKNSLYLQMNSLRAEDTAVYYCARGGDITTGFDYWGQGTLVTVSS the binder record lists Fold gain scFv-Fc (hRAGE) as 5

According to the records, this binder 3D2 scFv-Fc fusion (Fc fusion, not shown: wild-type human IgG Fc (hinge and constant domains)) DIQMTQSPSSLSASVGDRVTITCRASQDVGIYVNWFQQKPGKAPRRLIYRATNLADGVPSRFSGSRSGTDFTLTISSLQPEDFATYYCLEFDEHPLTFGGGTKVEIKDGGGSGGGGSGGGGSSEVQLVESGGGLVQPGGSLRLSCAASGFTFNNYWMTWVRQAPGKGLEWVASIDNSGDNTYYPDSVKDRFTISRDNAKNSLYLQMNSLRAEDTAVYYCARGGDIRVSLDHWGQGTLVTVSS displays Fold gain scFv-Fc (hRAGE) of 31.3

// Fold gain scFv-Fc (hRAGE) lookup, binder = 2E6 scFv-Fc fusion (Fc fusion, also called 2E6 (c); not shown: wild-type human IgG Fc (hinge and constant domains)) DIQMTQSPSSLSASVGDRVTITCRASQDVGIYVNWFQQKPGKAPRRLIYRATNLADGVPSRFSGSRSGTDFTLTISSLQPEDFATYYCLEFDEHPLTFGGGTKVEIKDGGGSGGGGSGGGGNSEVQLVESGVGLVQPGGSLRLSCAASGFTFNNYWMTWVRQAPGKGLEWVASIDNSGDNTYYPDSVKDRFTISRDNAKNSLYLQMNSLRAEDTAVYYCARGGDITNGLDYWGQGTLVTVSS , result: 6.9

Measured Fold gain scFv-Fc (hRAGE), 5H3 scFv-Fc fusion (Fc fusion, not shown: wild-type human IgG Fc (hinge and constant domains)) DIQMTQSPSSLSASVGDRVTITCRASQDVGIYVNWFQQKPGKAPRRLIDRATNLADGVPSRFSGSRSGTDFTLTISSLQPEDFATYYCLEFDEHPLTFGGGTKVEIKDGGGSGGGGSGGGGSSEVLLVESGGGLVQPGGSLRLSCAASGFTFNNYWMTWVRQAPGKGLEWVASIDNSGDNTYYPDSVKDRFTISRDNAKNSLYLQMNSLRAEDTAVYYCARGGDITTGFDYWGQGTLVTVSS : 6.1

Fold gain scFv-Fc (hRAGE) recorded for this binder, 10H6 scFv-Fc fusion (Fc fusion, also called 10H6 (a); not shown: wild-type human IgG Fc (hinge and constant domains)) DIQMTQSPSSLSASVGDGVTITCQASQDVGIYVNWFQQKPGKAPRRLIYRATNLADGVPSRFSGSRSGTDFTLTISSLQPEDFATYYCLEFDEHPLTFGGGTKVEIKNGGGSGGGGSGGGGSSEVQLVESGGGLVQPGGSLRLSCAASGFTFNNYWMTWVRQAPGKGLEWVASIDNSGDNTYYPDSVKDRFTISRDNAKNSLYLQMNSLRAEDTAVYYCARGGDITTGLDYWGQGTLVTESS , is 13.7
